Source listed as patent US20250186614A1.

assay: Example 4: dose response of FKBP constructs 160-255, Ec50, Ec90 and fold change (raw and normalized to mCherry); assay type: cell-based; settings: fold change during initial analysis
readout_label: FC (fold change)
Numbers only.

The cases that follow already have their FC (fold change) on record.
The recorded FC (fold change) for FKBP-179 (protein, Description of sequence: Construct Name: FKBP-179; Mutation(s): Q72R Q84E A117W DRD M54A H53G R72L) HCPIKSRKGDVLGAHYTGKLEDGTEFDSSLPLNQPFVFSLGTGEVIKGWDQGLLGMCEGEKRKLVIPSELGYGERGWPPKIPGGATLVFEVELLKIER is 3.1

The recorded FC (fold change) for FKBP-193 (protein, Description of sequence: Construct Name: FKBP-193; Mutation(s): Q72R Q84E A117W V85R DRD D90A) HCPIKSRKGDVLHMHYTGKLEDGTEFDSSLPRNQPFVFSLGTGERIKGWAQGLLGMCEGEKRKLVIPSELGYGERGWPPKIPGGATLVFEVELLKIER is 37.8

***
The recorded FC (fold change) for FKBP-163 (protein, Description of sequence: Construct Name: FKBP-163; Mutation(s): Q72R Q84E A117W DRD M54A M96V V85R) HCPIKSRKGDVLHAHYTGKLEDGTEFDSSLPRNQPFVFSLGTGERIKGWDQGLLGVCEGEKRKLVIPSELGYGERGWPPKIPGGATLVFEVELLKIER is 29.4
